Quick reference for PBM E-score among some sequences
# system: Msn1 (UniProt P22148)
# Sequence: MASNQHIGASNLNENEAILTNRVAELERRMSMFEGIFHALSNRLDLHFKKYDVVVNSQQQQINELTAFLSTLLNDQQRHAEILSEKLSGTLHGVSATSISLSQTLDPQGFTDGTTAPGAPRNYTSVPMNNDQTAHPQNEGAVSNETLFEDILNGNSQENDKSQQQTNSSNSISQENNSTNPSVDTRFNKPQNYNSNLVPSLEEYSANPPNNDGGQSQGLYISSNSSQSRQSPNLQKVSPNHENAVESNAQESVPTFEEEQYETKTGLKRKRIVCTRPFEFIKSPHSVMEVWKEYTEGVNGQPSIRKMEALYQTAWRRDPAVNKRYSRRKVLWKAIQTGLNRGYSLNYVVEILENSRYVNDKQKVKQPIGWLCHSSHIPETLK
# experiment: PBM E-score (8-mer binding enrichment) (E-score (-0.5 to 0.5)); higher = stronger / more preferred TF binding
# settings: protein concentration: 200 nM; construct: GST-full length
Whole data set: some 33,000 sequences, median “E-score (-0.5 to 0.5)” near -0.013, cut for the highest 2% near 0.3. Shown is part of a subset that was picked to be rich in the highest values.
The response must contain the number and no unit.

Field: example entries. Status: answers known.
chain_sequence=AAATTGTC system="Msn1 (UniProt P22148)" endpoint_result=0.449
chain_sequence=ACATTCGT system="Msn1 (UniProt P22148)" endpoint_result=0.0578
chain_sequence=AAATTGTA system="Msn1 (UniProt P22148)" endpoint_result=0.222
chain_sequence=ACACGGAC system="Msn1 (UniProt P22148)" endpoint_result=0.32
chain_sequence=ACATATGG system="Msn1 (UniProt P22148)" endpoint_result=0.262

### Prompt Query: PBM E-score; subject: "ACATATCA"
### Response 0.319

### Prompt Check "CAATTGTA" too.
### Response 0.184

### Prompt Check "AAATTGTT" too.
### Response 0.143

### Prompt Check "ACATATGA" too.
### Response 0.311

### Prompt Check "GGGGGAAC" too.
### Response -0.456

### Prompt Check "ACGATCCC" too.
### Response -0.232

* * *

# system: Msn1 (UniProt P22148)
# Sequence: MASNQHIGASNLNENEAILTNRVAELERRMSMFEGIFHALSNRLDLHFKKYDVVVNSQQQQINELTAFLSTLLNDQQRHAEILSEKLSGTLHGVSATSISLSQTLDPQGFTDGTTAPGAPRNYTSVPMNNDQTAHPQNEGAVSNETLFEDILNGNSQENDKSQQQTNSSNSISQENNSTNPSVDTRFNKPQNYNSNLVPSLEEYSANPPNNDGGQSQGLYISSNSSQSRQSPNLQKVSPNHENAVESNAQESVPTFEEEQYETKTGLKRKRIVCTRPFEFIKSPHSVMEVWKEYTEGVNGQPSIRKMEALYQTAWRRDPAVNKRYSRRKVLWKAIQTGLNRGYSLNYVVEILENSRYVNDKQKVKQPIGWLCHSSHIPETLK
# experiment: PBM E-score (8-mer binding enrichment) (E-score (-0.5 to 0.5)); higher = stronger / more preferred TF binding
# settings: protein concentration: 200 nM; construct: GST-full length
Whole data set: some 33,000 sequences, median “E-score (-0.5 to 0.5)” near -0.013, cut for the highest 2% near 0.3. What follows is part of a selection rich in the highest values, with near analogues and random picks from the rest.
Quick reference for PBM E-score among some sequences
The response must contain the number and no unit.

chain_sequence=AGCTCTAC endpoint_result=-0.104
chain_sequence=ATTGTCGG endpoint_result=0.318
chain_sequence=CAAGATAA endpoint_result=0.324
chain_sequence=AACTTGGC endpoint_result=-0.0461
chain_sequence=GCGCTAGC endpoint_result=-0.0831
chain_sequence=CTTCACTA endpoint_result=-0.0698

### Prompt Kindly state the measured PBM E-score obtained for "TCAGTTCA" with Msn1 (UniProt P22148).
### Response -0.039

### Prompt Check "CTTGTCGC" too.
### Response 0.166

### Prompt Check "CCAGCGCC" too.
### Response -0.229

### Prompt Check "AATAGGAT" too.
### Response 0.157

### Prompt Check "CCAGGTGC" too.
### Response -0.205

### Prompt Check "AGTTTTTC" too.
### Response 0.0155

### Prompt Check "ATTATGTG" too.
### Response 0.151

### Prompt Check "ACTGTCGC" too.
### Response -0.134

### Prompt Check "ATTTGCCC" too.
### Response 0.0584

### Prompt Check "AATAACTC" too.
### Response 0.00363

### Prompt Check "GATGGGGA" too.
### Response -0.143

### Prompt Check "ATCGCAAA" too.
### Response 0.0406

### Prompt Check "AATGCGGG" too.
### Response 0.145

### Prompt Check "GGGGCTGA" too.
### Response -0.148

### Prompt Check "AACCATGT" too.
### Response 0.0974

### Prompt Check "ATTTCGGA" too.
### Response 0.239

### Prompt Check "AATAGGAA" too.
### Response 0.102

### Prompt Check "AAAGATAA" too.
### Response 0.14

### Prompt Check "CTTATGTC" too.
### Response 0.374

### Prompt Check "ATATTTTC" too.
### Response 0.226

* * *

# system: Msn1 (UniProt P22148)
# Sequence: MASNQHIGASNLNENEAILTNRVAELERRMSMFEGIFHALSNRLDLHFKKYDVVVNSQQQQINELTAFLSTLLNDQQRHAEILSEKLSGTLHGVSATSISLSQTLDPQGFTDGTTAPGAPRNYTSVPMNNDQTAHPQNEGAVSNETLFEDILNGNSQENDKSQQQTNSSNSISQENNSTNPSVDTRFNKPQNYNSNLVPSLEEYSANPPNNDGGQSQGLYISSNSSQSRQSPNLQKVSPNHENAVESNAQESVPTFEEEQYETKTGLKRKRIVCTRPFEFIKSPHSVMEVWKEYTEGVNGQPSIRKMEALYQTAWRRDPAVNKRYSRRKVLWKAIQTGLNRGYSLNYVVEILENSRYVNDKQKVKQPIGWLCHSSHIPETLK
# experiment: PBM E-score (8-mer binding enrichment) (E-score (-0.5 to 0.5)); higher = stronger / more preferred TF binding
# settings: protein concentration: 200 nM; construct: GST-full length
In all, about 33,000 sequences were measured (“E-score (-0.5 to 0.5)”: median about -0.013, highest 2% from about 0.3 on). Shown is part of a subset that was picked to be rich in the highest values.
Quick reference for PBM E-score among some sequences
The response must contain the number and no unit.

### Prompt Query: PBM E-score; subject: "ATCATGTC"
### Response 0.278

### Prompt Check "ACTATACC" too.
### Response 0.0929

### Prompt Check "CGATTAAA" too.
### Response 0.0941

### Prompt Check "CGAAAGCG" too.
### Response 0.0854

### Prompt Check "ACGACTCC" too.
### Response -0.181

* * *

# system: Msn1 (UniProt P22148)
# Sequence: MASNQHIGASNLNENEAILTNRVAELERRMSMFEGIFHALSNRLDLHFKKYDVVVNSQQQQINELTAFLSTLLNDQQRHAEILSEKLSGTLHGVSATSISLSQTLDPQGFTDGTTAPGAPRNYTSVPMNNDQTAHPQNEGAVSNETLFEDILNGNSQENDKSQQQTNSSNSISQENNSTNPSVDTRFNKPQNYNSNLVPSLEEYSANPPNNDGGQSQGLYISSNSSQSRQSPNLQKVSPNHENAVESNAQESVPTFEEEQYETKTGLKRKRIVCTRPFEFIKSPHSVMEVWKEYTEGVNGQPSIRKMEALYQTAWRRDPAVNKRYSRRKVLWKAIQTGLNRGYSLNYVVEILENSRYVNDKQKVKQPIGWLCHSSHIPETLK
# experiment: PBM E-score (8-mer binding enrichment) (E-score (-0.5 to 0.5)); higher = stronger / more preferred TF binding
# settings: protein concentration: 200 nM; construct: GST-full length
The full ranking holds about 33,000 sequences; the median of “E-score (-0.5 to 0.5)” is about -0.013, and the highest 2% start at about 0.3. What follows is part of a selection rich in the highest values, with near analogues and random picks from the rest.
Rule: PBM E-score under -0.07 gives Not fulfilled, otherwise Fulfilled.

chain_sequence=AAGTACAC class=Fulfilled
chain_sequence=GGGACTGA class="Not fulfilled"
chain_sequence=ACGTACAT class=Fulfilled
chain_sequence=GGGACATA class=Fulfilled
chain_sequence=GCTTCCAA class=Fulfilled
chain_sequence=ACAGTCAG class=Fulfilled
chain_sequence=ACGTACAA class=Fulfilled
chain_sequence=AAGTACAT class=Fulfilled
chain_sequence=ACGTACAG class=Fulfilled
chain_sequence=ATGCAGAG class="Not fulfilled"

We next turn to a different sequence, shown below.
### Prompt Determine whether this sequence has PBM E-score no lower than -0.07: "GGGACAGA"
### Response Fulfilled
